Species: Rattus norvegicus
Experiment: Open TG-GATES - Regimen: Daily Repeat
Assay type: toxicity, organism-based, Sprague-Dawley
Set-up: regimen Daily Repeat, gender Male, age 6 weeks
Details: in vivo, po, 0 mg/kg, […], tissue Blood, route gavage, dose level Control, time 7 day

compound: CC(C)Cc1ccc(C(C)C(=O)O)cc1 (stereo not drawn)
unitsLabel: %
Mono: 2.4

compound: CC(=O)Nc1ccc2c(c1)Cc1ccccc1-2
unitsLabel: %
Mono: 2.4

compound: CC(=O)N1CCN(c2ccc(OCC3COC(Cn4ccnc4)(c4ccc(Cl)cc4Cl)O3)cc2)CC1 (stereo not drawn)
unitsLabel: %
Mono: 2

compound: CC(N)=O [ACETAMIDE]
unitsLabel: %
Mono: 3.2

compound: O=C(O)COc1nn(Cc2ccccc2)c2ccccc12
unitsLabel: %
Mono: 6

compound: CC(CCc1ccccc1)NCC(O)c1ccc(O)c(C(N)=O)c1 (stereo not drawn)
unitsLabel: %
Mono: 3

compound: CCN(CC)N=O
unitsLabel: %
Mono: 2.4

compound: CC[C@@H](CO)NCCN[C@@H](CC)CO
unitsLabel: %
Mono: 2.2

###

Species on record: Rattus norvegicus
Assay: Open TG-GATES - Regimen: Single
Type: toxicity, organism-based, Sprague-Dawley
Set-up: regimen Single, gender Male, age 6 weeks
Conditions: in vivo, po, 0 mg/kg, 24 h, tissue Blood, route gavage, dose level Control
Entries and their Ret

molecule: CC(C)Cc1ccc(C(C)C(=O)O)cc1 (configuration not stated) [IBUPROFEN]
Ret / %: 7.4

molecule: CC[C@@H](CO)NCCN[C@@H](CC)CO [ETHAMBUTOL]
Ret / %: 6.9

molecule: CC(=O)Nc1ccc2c(c1)Cc1ccccc1-2 [2-ACETYLAMINOFLUORENE]
Ret / %: 6.8

molecule: CC(CCc1ccccc1)NCC(O)c1ccc(O)c(C(N)=O)c1 (configuration not stated) [LABETALOL]
Ret / %: 7.9

molecule: O=C(O)COc1nn(Cc2ccccc2)c2ccccc12 [BENDAZAC]
Ret / %: 9.8

molecule: CC(=O)N1CCN(c2ccc(OCC3COC(Cn4ccnc4)(c4ccc(Cl)cc4Cl)O3)cc2)CC1 (configuration not stated) [KETOCONAZOLE]
Ret / %: 7.5

molecule: CCN(CC)N=O [N-NITROSODIETHYLAMINE]
Ret / %: 6.6

###

Catalogue of compounds with associated LIVER
Species on record: Rattus norvegicus
Test: Open TG-GATES - Regimen: Daily Repeat
Assay type: toxicity, organism-based, Sprague-Dawley
Set-up: regimen Daily Repeat, gender Male, age 6 weeks
Details: in vivo, po, 0 mg/kg, 72 h, tissue Liver, route gavage, dose level Control, time 3 day
measurementKind: LIVER (g)

compound: CCN(CC)N=O [N-NITROSODIETHYLAMINE]
valueObserved: 10.5
--
compound: CC(=O)N1CCN(c2ccc(OCC3COC(Cn4ccnc4)(c4ccc(Cl)cc4Cl)O3)cc2)CC1 (configuration not stated) [KETOCONAZOLE]
valueObserved: 10.8
--
compound: CC[C@@H](CO)NCCN[C@@H](CC)CO [ETHAMBUTOL]
valueObserved: 11.5
--
compound: CC(CCc1ccccc1)NCC(O)c1ccc(O)c(C(N)=O)c1 (configuration not stated) [LABETALOL]
valueObserved: 12.1
--
compound: CC(=O)Nc1ccc2c(c1)Cc1ccccc1-2 [2-ACETYLAMINOFLUORENE]
valueObserved: 12.2
--
compound: CC(N)=O [ACETAMIDE]
valueObserved: 11.1
--
compound: O=C(O)COc1nn(Cc2ccccc2)c2ccccc12 [BENDAZAC]
valueObserved: 11.2

###

Organism: Rattus norvegicus
Test: Open TG-GATES - Regimen: Single
Format: toxicity, organism-based, Sprague-Dawley
Set-up: regimen Single, gender Male, age 6 weeks
Conditions: in vivo, po, 0 mg/kg, 3 h, route gavage, dose level Control

compound: CC[C@@H](CO)NCCN[C@@H](CC)CO
unitsLabel: g
TERMINAL_BW: 227
--
compound: O=C(O)COc1nn(Cc2ccccc2)c2ccccc12
unitsLabel: g
TERMINAL_BW: 211
--
compound: CC(CCc1ccccc1)NCC(O)c1ccc(O)c(C(N)=O)c1 (configuration not stated)
unitsLabel: g
TERMINAL_BW: 214.7
--
compound: CC(=O)N1CCN(c2ccc(OCC3COC(Cn4ccnc4)(c4ccc(Cl)cc4Cl)O3)cc2)CC1 (configuration not stated)
unitsLabel: g
TERMINAL_BW: 204
--
compound: CC(=O)Nc1ccc2c(c1)Cc1ccccc1-2
unitsLabel: g
TERMINAL_BW: 224.8
--
compound: CC(C)Cc1ccc(C(C)C(=O)O)cc1 (configuration not stated)
unitsLabel: g
TERMINAL_BW: 204.9
--
compound: CCN(CC)N=O
unitsLabel: g
TERMINAL_BW: 221

###

Species: Rattus norvegicus
Experiment: Open TG-GATES - Regimen: Daily Repeat
Assay type: toxicity, organism-based, Sprague-Dawley
Design: regimen Daily Repeat, gender Male, age 6 weeks
Conditions: in vivo, po, 0 mg/kg, […], tissue Blood, route gavage, dose level Control, time 14 day

compound: CC(CCc1ccccc1)NCC(O)c1ccc(O)c(C(N)=O)c1 (configuration not stated)
MCH [pg]: 21.1

compound: CCN(CC)N=O
MCH [pg]: 21

compound: CC(=O)Nc1ccc2c(c1)Cc1ccccc1-2
MCH [pg]: 20.5

compound: CC[C@@H](CO)NCCN[C@@H](CC)CO
MCH [pg]: 20.5

compound: CC(N)=O [ACETAMIDE]
MCH [pg]: 19.6

compound: CC(=O)N1CCN(c2ccc(OCC3COC(Cn4ccnc4)(c4ccc(Cl)cc4Cl)O3)cc2)CC1 (configuration not stated)
MCH [pg]: 20.5

compound: O=C(O)COc1nn(Cc2ccccc2)c2ccccc12
MCH [pg]: 21.2

###

Organism: Rattus norvegicus
Test: Open TG-GATES - Regimen: Single
Type: toxicity, organism-based, Sprague-Dawley
Design: regimen Single, gender Male, age 6 weeks
Details: in vivo, po, 0 mg/kg, 9 h, tissue Blood, route gavage, dose level Control
A collection of compounds and their measured Plat

compound: CC(=O)Nc1ccc2c(c1)Cc1ccccc1-2
Plat (x10_4/uL): 124
//
compound: CC(=O)N1CCN(c2ccc(OCC3COC(Cn4ccnc4)(c4ccc(Cl)cc4Cl)O3)cc2)CC1 (stereo unspecified)
Plat (x10_4/uL): 138.7
//
compound: O=C(O)COc1nn(Cc2ccccc2)c2ccccc12
Plat (x10_4/uL): 107.3
//
compound: CCN(CC)N=O
Plat (x10_4/uL): 125.1
//
compound: CC[C@@H](CO)NCCN[C@@H](CC)CO
Plat (x10_4/uL): 116
//
compound: CC(C)Cc1ccc(C(C)C(=O)O)cc1 (stereo unspecified)
Plat (x10_4/uL): 125.1

###

Overview of recorded TC for various molecules
Species: Rattus norvegicus
Assay: Open TG-GATES - Regimen: Single
Assay type: toxicity, organism-based, Sprague-Dawley
Parameters: regimen Single, gender Male, age 6 weeks
Conditions: in vivo, po, 0 mg/kg, 6 h, tissue Plasma, route gavage, dose level Control

molecule: CCN(CC)N=O
TC: 82.2 mg/dL
--
molecule: CC(=O)Nc1ccc2c(c1)Cc1ccccc1-2
TC: 72.2 mg/dL
--
molecule: CC[C@@H](CO)NCCN[C@@H](CC)CO
TC: 72 mg/dL
--
molecule: CC(CCc1ccccc1)NCC(O)c1ccc(O)c(C(N)=O)c1 (configuration not stated)
TC: 86.2 mg/dL
--
molecule: O=C(O)COc1nn(Cc2ccccc2)c2ccccc12
TC: 72.6 mg/dL
--
molecule: CC(C)Cc1ccc(C(C)C(=O)O)cc1 (configuration not stated)
TC: 73.2 mg/dL
--
molecule: CC(=O)N1CCN(c2ccc(OCC3COC(Cn4ccnc4)(c4ccc(Cl)cc4Cl)O3)cc2)CC1 (configuration not stated)
TC: 67.6 mg/dL

###

Measured Na by item
Species: Rattus norvegicus
Experiment: Open TG-GATES - Regimen: Single
Format: toxicity, organism-based, Sprague-Dawley
Design: regimen Single, gender Male, age 6 weeks
Details: in vivo, po, 0 mg/kg, 3 h, tissue Plasma, route gavage, dose level Control

compound: CC(C)Cc1ccc(C(C)C(=O)O)cc1 (configuration not stated)
unitsLabel: meq/L
Na: 142

compound: O=C(O)COc1nn(Cc2ccccc2)c2ccccc12
unitsLabel: meq/L
Na: 139.8

compound: CC(=O)N1CCN(c2ccc(OCC3COC(Cn4ccnc4)(c4ccc(Cl)cc4Cl)O3)cc2)CC1 (configuration not stated)
unitsLabel: meq/L
Na: 141.8

compound: CCN(CC)N=O
unitsLabel: meq/L
Na: 140.8

compound: CC[C@@H](CO)NCCN[C@@H](CC)CO
unitsLabel: meq/L
Na: 144.2

compound: CC(=O)Nc1ccc2c(c1)Cc1ccccc1-2
unitsLabel: meq/L
Na: 141

compound: CC(CCc1ccccc1)NCC(O)c1ccc(O)c(C(N)=O)c1 (configuration not stated)
unitsLabel: meq/L
Na: 142.6
